# protocol text: protein stability index of a GFP-peptide fusion (yeast GPS) (PSI 1-4); higher = more stable; sorted into four equal gates, so the index is relative within each strain
# measurement parameters: doa10∆
Assign class 1 to entries whose protein stability index meets or exceeds 3; assign class 0 to the rest.

Worked cases, answers included:
FYSTNSQYFKFKNDFNS [RPN9] : class 0
NVLCVNIKSNDFSIRKT [ECM29] : class 0
YSRSVDKEWVFAALSDS [SSN2] : class 0
SNASRRKLINYTKKHLS [RPN4] : class 0
SAVVGPNGSGKSNVIDS [SMC4] : class 1

// switching to the query sequence
**Query** For this sequence, is measured protein stability index 3 or higher? YGRKSFRNNKNDNYSSD [REC8]
**Result** class 1

* * *

# protocol text: protein stability index of a GFP-peptide fusion (yeast GPS) (PSI 1-4); higher = more stable; sorted into four equal gates, so the index is relative within each strain
# measurement parameters: ubr1∆
readout kind: protein stability index
Give bare numbers.

SFFNISPDAPKEIMDKI [SIN4] : 3.29
VLEKYEVIGYIAAGTYG [SSN3] : 1.28
RVERSSRSTDNFHNSKK [RRI1] : 3.08
WNRADNHFKDTYGFSIL [FAS1] : 3.27
HTSSNSREIAQPSSSRY [SMB1] : 3.22

// each sequence listed below needs its protein stability index
1. MDIILGIRVQDSVILAS [PRE1]
2. PPKPRKVLQLLRLTRIN [RPL7A]

**Result**
[1.4, 1.09]

* * *

# protocol text: protein stability index of a GFP-peptide fusion (yeast GPS) (PSI 1-4); higher = more stable; sorted into four equal gates, so the index is relative within each strain
# measurement parameters: san1∆
readout kind: protein stability index
One number for each entry.

Solved cases (3 shown):
PDIVGHEFTLSFTYELK [BRR2] : 2.15
LDNLKLKELRIDNSPQA [GRR1] : 2.69
HDELIDSIPRDVAYLLK [YGL172W/NUP49] : 2.89

For every item below, please supply its protein stability index.
1. SNIITKSLVQYIELLPN [DIS3]
2. RYNGGNDNIGANRSRFN [SMB1]

**Result**
1. 2.22
2. 3.14

List the reported protein stability index of each sequence below.
1. LARASGNYVIIIGHNPD [RPL2A]
2. DYSINSRYEPKVFDCGD [PRE7]
3. VRIYSGLLKRGDTVRIL [SNU114]
4. GIRVQDSVILASSKAVT [PRE1]
5. ISCPLIGVIQLAHYVVT [FAS1]
6. IVLSDQTQEFFLSSFDD [YJL039C/NUP192]
7. LLSKIMLNLIDDVKNIL [RPN6]
8. NPTEFDWPTYVDQNPLT [SRB8]

**Result**
1: 2.85; 2: 2.9; 3: 2.66; 4: 2.46; 5: 1.24; 6: 2.92; 7: 1.25; 8: 2.69

# map each sequence to its protein stability index
1. IRDSIPQMDSFDKDLER [DIS3]
2. DSSAHFKGALTIKILPE [YMR129W/POM152]

**Result**
[3.19, 2.37]

* * *

# protocol text: protein stability index of a GFP-peptide fusion (yeast GPS) (PSI 1-4); higher = more stable; sorted into four equal gates, so the index is relative within each strain
# measurement parameters: pdr5∆
Provide the reported protein stability index of each item.
Numbers only.

TKFLAKNGVIPEESKGS [SWP82] : 3.16
MFLYILKHLEEMGKLRE [RRI2] : 3.16
MAKCLDNPDQGISDMCR [YCS4] : 3.55
ERPPLLPILPIQRLRLL [YOR098C/NUP1] : 2.36
YLEENKSDSQYRFYEYI [MED1] : 3.06
FMEIVLEYNVALNDVYL [YML031W/NDC1] : 2.3

Below is a list of sequences. For each, state its recorded protein stability index.
1. LKDSKDFDESLKYLDDL [RPN9]
2. VKPISIEAPQFYRYWSA [SWI3]
3. VHNTNSFIISSLDTLEL [NUT1]

**Result**
1. 3.21
2. 2.09
3. 2.34

Would you mind listing protein stability index for each of the following sequences?
1. MFTQIYLERIELSFYIL [YML103C/NUP188]
2. LISNAIYGKKTMVIQDE [ECM29]
3. NAIFLSSEQDYSTLKEL [YCG1]
4. TTKMWPTNCPLRQFKTC [BRR2]

**Result**
[1.46, 1.83, 2.6, 2.31]

**Query** Find the recorded protein stability index belonging to GSTLNVSQMVAVVGQQI [RPO31] and report it.
**Result** 2.94

* * *

# protocol text: protein stability index of a GFP-peptide fusion (yeast GPS) (PSI 1-4); higher = more stable; sorted into four equal gates, so the index is relative within each strain
# measurement parameters: pdr5∆
readout kind: protein stability index
Numbers only.

TSKWLNSITSGGLKSCD [YDL116W/NUP84] : 3.17
ILGMLSLADNEIALKGL [YCS4] : 2.08
DEKKDSDSSKPAFSFGT [YJL041W/NSP1] : 2.49
TFKDGVILGADSRTTTG [PRE3] : 2.8
NNAHSSDLGTVVFDSNE [YMR153W/NUP53] : 2.46
KHYKNIPRNSPLSDLKK [RPC82] : 2.97

The following sequences each have a reported value; give each one's protein stability index.
1. TFPVGRVHRLLRRGNYA [HTA1]
2. PPDSDSSISVMGENEKP [RPT3]
3. EDNAGVIANPKGEMKGS [RPL23A]
4. SKCLNLISDSNINNSSV [SWI3]

**Result**
2.86
1.22
1.92
1.91

* * *

# protocol text: protein stability index of a GFP-peptide fusion (yeast GPS) (PSI 1-4); higher = more stable; sorted into four equal gates, so the index is relative within each strain
# measurement parameters: doa10∆
Consider the following sequences; for each one, report its protein stability index.

Record excerpt, results attached:
SDSYKVSLQNFSSSVSL [RRP40] : 2.69
IGHLIKTRFKGSQFIVV [SMC2] : 3.5
AQASEEENDLQQKLNTR [REC8] : 2.96
YGMSITETFEKPQRTNT [RPB2] : 3.03

List the reported protein stability index of each sequence below.
1. ATTSVMMVNNQTMQLIK [SRB6]
2. RTLTAVHDKILEDLVFP [RPS7A]
3. HHNDISNDSQSHFDYNT [YCG1]
4. SNGFNNVTFGSKKDPRI [YMR153W/NUP53]

**Result**
3.09
3.24
1.89
2.77

* * *

# protocol text: protein stability index of a GFP-peptide fusion (yeast GPS) (PSI 1-4); higher = more stable; sorted into four equal gates, so the index is relative within each strain
# measurement parameters: doa10∆
readout kind: protein stability index
Numbers only.

SNYSRTMTISHLLLGFQ [YJL039C/NUP192] : 1.82
HWNLPGERIFNKIRNLE [SIR2] : 3.3
VTKETVHPRKSYKMNSS [PRP8] : 3.03
TLYSVKSKEDMKQLKFF [SNU114] : 3.28
KTEDPKGGIIASVGDIL [YML031W/NDC1] : 2.57

Hi! Can you tell me protein stability index for each of these sequences?
1. SSDGALCMDSSYIGTII [POP1]
2. SVINNYLREDQMIDTSI [NUT1]

**Result**
[3.09, 2.99]

* * *

Can you tell me protein stability index for the items I'm about to list?
# protocol text: protein stability index of a GFP-peptide fusion (yeast GPS) (PSI 1-4); higher = more stable; sorted into four equal gates, so the index is relative within each strain
# measurement parameters: doa10∆

Example entries and their recorded answers appear below.
ETTTQFKATHILDFGPG [FAS1] : 2.44
KVISEILTREVQNSTLA [RPS1B] : 2.51
LISSSGPIKTPVGACAT [FAS2] : 1.76
LSGIIQDIYYLAQTLKL [RRI2] : 1.54
NNTNTGASGVDDFQNFF [SWI1] : 2.92

For the 7 sequences below, give their protein stability index values.
1. HGKPTKGSSLASAASEA [SSN8]
2. KLNTFNLQTFTHEQWSN [SRP72]
3. DNDRFNVVGKLISIISS [YML103C/NUP188]
4. LARASGNYVIIIGHNPD [RPL2A]
5. MTEDIEQKKTATEVTPQ [RPC19]
6. GSDEAYVKDARKDTVSR [RPC40]
7. ELKNELAKTKENYDAKI [YIL149C/MLP2]

**Result**
1.95
3
1.3
2.8
2.8
3.23
3.22

Provide each entry's protein stability index from the list below.
1. SSNLYETIIEADKSLPS [YJR042W/NUP85]
2. PKKYKENNTDSARKELE [SMC1]

**Result**
1. 2.76
2. 2.96
